- Run description: Blood partitioning
- Type: in vitro ADME
- Measurement setup: rat, Sprague-Dawley, authors call the ratio not accurate
Property: blood plasma ratio at 1 μM

{"Line notation": "COc1cc(C(=O)/C=C/c2ccc(F)cc2)cc(OC)c1OC", "Property": "blood plasma ratio at 1 μM", "Test value": 9.2}

---

- Run description: High-dose PK, single PO 300 mg/kg via oral gavage
- Format: in vivo
- Measurement setup: male, CD-1, mouse, whole blood, po, single 300 mg/kg oral gavage, 1 h, Average±SD
Property: concentration at 1 h (ng/mL)

{"Compound": "COc1cc(C(=O)/C=C/c2ccc(F)cc2)cc(OC)c1OC [C16, 4-fluoro-3’,4’,5’-trimethoxychalcone]", "Property": "concentration at 1 h", "Test value": 28.3}

---

- Run description: Plasma PK study (IV and PO) in male Sprague-Dawley rats
- Type: in vivo, rat
- Measurement setup: male, Sprague-Dawley, rat, plasma, iv, 1 mg/kg, male Sprague-Dawley rat, IV 1 mg/kg, vehicle DMSO, average, extrapolated to t = 0

{"Line notation": "COc1cc(C(=O)/C=C/c2ccc(F)cc2)cc(OC)c1OC", "C0": "1260 ng/mL"}

---

- Run description: Plasma PK study (IV and PO) in male Sprague-Dawley rats
- Format: in vivo, rat
- Measurement setup: male, Sprague-Dawley, rat, plasma, po, 10 mg/kg, rat, PO 10 mg/kg, 2.0 h, animals 4-6; read-out: Individual plasma concentration

{"Line notation": "COc1cc(C(=O)/C=C/c2ccc(F)cc2)cc(OC)c1OC", "Result units": "ng/mL", "concentration at 2 h": 15.1}

---

- Run description: Whole-blood PK study (IV, IP and PO) in male CD-1 mice
- Type: in vivo, mouse
- Measurement setup: male, CD-1, mouse, whole blood, iv, 1 mg/kg, male CD-1 mouse, IV 1 mg/kg, average, extrapolated to t = 0

{"Line notation": "COc1cc(C(=O)/C=C/c2ccc(F)cc2)cc(OC)c1OC", "C0 / ng/mL": 76}

---

- Run description: Whole-blood PK study (IV, IP and PO) in male CD-1 mice
- Assay type: in vivo, mouse
- Measurement setup: male, CD-1, mouse, whole blood, ip, 10 mg/kg, mouse blood, IP 10 mg/kg, individual animals 4-6; read-out: Bioavailability

{"Compound": "COc1cc(C(=O)/C=C/c2ccc(F)cc2)cc(OC)c1OC [C16, 4-fluoro-3’,4’,5’-trimethoxychalcone]", "Bioavailability / %": 49.7}

---

- Run description: Whole-blood PK study (IV, IP and PO) in male CD-1 mice
- Type: in vivo, mouse
- Measurement setup: male, CD-1, mouse, whole blood, iv, 1 mg/kg, male CD-1 mouse, IV 1 mg/kg, average

{"Line notation": "COc1cc(C(=O)/C=C/c2ccc(F)cc2)cc(OC)c1OC", "Result units": "ng·h/mL", "AUC(0-inf)": 22.4}

---

- Run description: Whole-blood PK study (IV, IP and PO) in male CD-1 mice
- Type: in vivo, mouse
- Measurement setup: male, CD-1, mouse, whole blood, iv, 1 mg/kg, mouse, IV 1 mg/kg, 0.083 h, animals 1-3; read-out: Individual blood concentration
- Experimental: Nine male CD-1 mice (25–35 g) were obtained from Hilltop Labs. Duration of acclimation was at least two days. […] Blood samples were taken pre-dose and 5 (except for PO administration), 15, 30 min, 1, 2, 4, and 8 h after dosing. […] The sample was pipetted up and down five times, immediately frozen on dry ice and stored at -60°C to -80°C until analyzed. […] c Bioavailability determined by dividing the individual dose normalized oral AUC last by the average dose normalized intravenous AUC last value. […]
Property: concentration at 0.083 h (ng/mL)

{"Line notation": "COc1cc(C(=O)/C=C/c2ccc(F)cc2)cc(OC)c1OC", "Result units": "ng/mL", "Test value": 46.4}
